Field: number of positive plasma samples. Provide a value for each of the compounds that follow.
- PROCEDURE_SUMMARY: Plasma pharmacokinetics after single oral dose of Δ8-THCV in MCT oil (LC-MS/MS, non-compartmental analysis)
- Assay type: in vivo, human
- APPLIED_CONDITIONS: of 504 plasma samples from 15 participants after oral Δ8-THCV
One number for each entry.

• CCCc1cc(O)c2c(c1)OC(C)(C)[C@@H]1CC=C(C)C[C@@H]21 [Δ8-THCV, Δ8-tetrahydrocannabivarin] = 236
• CCCc1cc(O)c2c(c1)OC(C)(C)[C@@H]1CC=C(CO)C[C@@H]21 (racemic) [11-OH-Δ8-THCV, (±)-11-hydroxy-Δ8-THCV] = 157
• CCCc1cc(O)c2c(c1)OC(C)(C)[C@@H]1CCC(C)=C[C@@H]21 [Δ9-THCV, Δ9-tetrahydrocannabivarin] = 42

Now look at this one.
Input: Field request: number of positive plasma samples | item: `CCCc1cc(O)c2c(c1)OC(C)(C)[C@@H]1CC=C(C(=O)O)C[C@@H]21`
Output: 381

---

- PROCEDURE_SUMMARY: Plasma pharmacokinetics after single oral dose of Δ8-THCV in MCT oil (LC-MS/MS, non-compartmental analysis)
- Type: in vivo, human
- APPLIED_CONDITIONS: human, plasma, oral, 50 mg, 1 h; 50 mg Δ8-THCV dose; Mean (SD, %CV)
MEASURED_ATTRIBUTE: concentration at 1 h (ng/mL)
Numbers only, in ng/mL.

Worked examples, 5 molecules total:
* CCCc1cc(O)c2c(c1)OC(C)(C)[C@@H]1CCC(C)=C[C@@H]21 [Δ9-THCV, Δ9-tetrahydrocannabivarin] | 0
* CCCc1cc(O)c2c(c1)OC(C)(C)[C@@H]1CC=C(C(=O)O)C[C@@H]21 | 27.3
* CCCc1cc(O)c2c(c1)OC(C)(C)[C@@H]1CCC(C(=O)O)=C[C@@H]21 | 0.6
* CCCc1cc(O)c2c(c1)OC(C)(C)[C@@H]1CC=C(C)C[C@@H]21 [Δ8-THCV, Δ8-tetrahydrocannabivarin] | 0.5
* CCCc1cc(O)c2c(c1)OC(C)(C)[C@@H]1CC=C(CO)C[C@@H]21 (racemic) [11-OH-Δ8-THCV, (±)-11-hydroxy-Δ8-THCV] | 0.1

Input: Field request: concentration at 1 h | item: CCCCCc1cc(O)c2c(c1)OC(C)(C)[C@@H]1CC=C(C(=O)O)CC21 (single isomer, unassigned; (+)) [Δ8-THC-COOH, (+)-11-nor-Δ8-THC-9-carboxylic acid]
Output: 0

---

- PROCEDURE_SUMMARY: Plasma pharmacokinetics after single oral dose of Δ8-THCV in MCT oil (LC-MS/MS, non-compartmental analysis)
- Type: in vivo, human
- APPLIED_CONDITIONS: Predose; 25 mg Δ8-THCV dose; Median (IQ Range)
Field: plasma concentration. Provide a value for each of the molecules that follow.

* CCCc1cc(O)c2c(c1)OC(C)(C)[C@@H]1CC=C(CO)C[C@@H]21 (racemic) [11-OH-Δ8-THCV, (±)-11-hydroxy-Δ8-THCV] | 0 (0–0) ng/mL
* CCCc1cc(O)c2c(c1)OC(C)(C)[C@@H]1CC=C(C)C[C@@H]21 [Δ8-THCV, Δ8-tetrahydrocannabivarin] | 0 (0–0) ng/mL

Now look at this one.
Input: Field request: plasma concentration | item: CCCc1cc(O)c2c(c1)OC(C)(C)[C@@H]1CCC(C)=C[C@@H]21 [Δ9-THCV, Δ9-tetrahydrocannabivarin]
Output: 0 (0–0) ng/mL

---

Field: concentration at 2 h. Provide a value for each of the compounds that follow.
- PROCEDURE_SUMMARY: Plasma pharmacokinetics after single oral dose of Δ8-THCV in MCT oil (LC-MS/MS, non-compartmental analysis)
- Type: in vivo, human
- APPLIED_CONDITIONS: human, plasma, oral, 25 mg, 2 h; 25 mg Δ8-THCV dose; Median (IQ Range)
Numbers only, in ng/mL.

• CCCc1cc(O)c2c(c1)OC(C)(C)[C@@H]1CC=C(CO)C[C@@H]21 (racemic) [11-OH-Δ8-THCV, (±)-11-hydroxy-Δ8-THCV] = 0
• CCCc1cc(O)c2c(c1)OC(C)(C)[C@@H]1CC=C(C)C[C@@H]21 [Δ8-THCV, Δ8-tetrahydrocannabivarin] = 0.3
• CCCCCc1cc(O)c2c(c1)OC(C)(C)[C@@H]1CC=C(C(=O)O)CC21 (single isomer, unassigned; (+)) [Δ8-THC-COOH, (+)-11-nor-Δ8-THC-9-carboxylic acid] = 0

Quick one: give me concentration at 2 h for each item below, same order please.
1. CCCc1cc(O)c2c(c1)OC(C)(C)[C@@H]1CCC(C)=C[C@@H]21 [Δ9-THCV, Δ9-tetrahydrocannabivarin]
2. CCCc1cc(O)c2c(c1)OC(C)(C)[C@@H]1CC=C(C(=O)O)C[C@@H]21
3. CCCc1cc(O)c2c(c1)OC(C)(C)[C@@H]1CCC(C(=O)O)=C[C@@H]21

Output:
[0, 55.6, 1.7]

---

Field: concentration at 6 h. Provide a value for each of the compounds that follow.
- PROCEDURE_SUMMARY: Plasma pharmacokinetics after single oral dose of Δ8-THCV in MCT oil (LC-MS/MS, non-compartmental analysis)
- Assay type: in vivo, human
- APPLIED_CONDITIONS: human, plasma, oral, 50 mg, 6 h; 50 mg Δ8-THCV dose; Mean (SD, %CV)
Numbers only, in ng/mL.

Worked examples, 3 compounds total:
* CCCc1cc(O)c2c(c1)OC(C)(C)[C@@H]1CC=C(C)C[C@@H]21 [Δ8-THCV, Δ8-tetrahydrocannabivarin] | 6.1
* CCCc1cc(O)c2c(c1)OC(C)(C)[C@@H]1CC=C(CO)C[C@@H]21 (racemic) [11-OH-Δ8-THCV, (±)-11-hydroxy-Δ8-THCV] | 1
* CCCc1cc(O)c2c(c1)OC(C)(C)[C@@H]1CCC(C)=C[C@@H]21 [Δ9-THCV, Δ9-tetrahydrocannabivarin] | 0.1

Quick one: give me concentration at 6 h for each item below, same order please.
1. CCCc1cc(O)c2c(c1)OC(C)(C)[C@@H]1CC=C(C(=O)O)C[C@@H]21 [Δ8-THCV-COOH, 11-nor-9-carboxy-Δ8-THCV]
2. CCCc1cc(O)c2c(c1)OC(C)(C)[C@@H]1CCC(C(=O)O)=C[C@@H]21 [Δ9-THCV-COOH, 11-nor-9-carboxy-Δ9-THCV]
3. CCCCCc1cc(O)c2c(c1)OC(C)(C)[C@@H]1CC=C(C(=O)O)CC21 (single isomer, unassigned; (+)) [Δ8-THC-COOH, (+)-11-nor-Δ8-THC-9-carboxylic acid]

Output:
1. 233
2. 6.7
3. 0

---

- PROCEDURE_SUMMARY: Plasma pharmacokinetics after single oral dose of Δ8-THCV in MCT oil (LC-MS/MS, non-compartmental analysis)
- Assay type: in vivo, human
- APPLIED_CONDITIONS: human, plasma, oral, 100 mg, 2 h; 100 mg Δ8-THCV dose; Median (IQ Range)
Returns T if the recorded concentration at 2 h is greater than or equal to 1 ng/mL, and F otherwise.

- CCCc1cc(O)c2c(c1)OC(C)(C)[C@@H]1CCC(C)=C[C@@H]21 [Δ9-THCV, Δ9-tetrahydrocannabivarin]: F
- CCCc1cc(O)c2c(c1)OC(C)(C)[C@@H]1CC=C(C)C[C@@H]21 [Δ8-THCV, Δ8-tetrahydrocannabivarin]: T
- CCCc1cc(O)c2c(c1)OC(C)(C)[C@@H]1CC=C(C(=O)O)C[C@@H]21: T
- CCCCCc1cc(O)c2c(c1)OC(C)(C)[C@@H]1CC=C(C(=O)O)CC21 (single isomer, unassigned; (+)) [Δ8-THC-COOH, (+)-11-nor-Δ8-THC-9-carboxylic acid]: F

Now turn to the next compound.
Input: Say whether `CCCc1cc(O)c2c(c1)OC(C)(C)[C@@H]1CCC(C(=O)O)=C[C@@H]21` shows concentration at 2 h of 1 ng/mL or more.
Output: T

---

Field: Cmax. Provide a value for each of the compounds that follow.
- PROCEDURE_SUMMARY: Plasma pharmacokinetics after single oral dose of Δ8-THCV in MCT oil (LC-MS/MS, non-compartmental analysis)
- Format: in vivo, human
- APPLIED_CONDITIONS: human, plasma, po, 25 mg, 25 mg single oral Δ8-THCV in MCT oil; Median (Range)
Give bare numbers, in ng/mL.

Worked examples, 3 compounds total:
* CCCc1cc(O)c2c(c1)OC(C)(C)[C@@H]1CC=C(C(=O)O)C[C@@H]21 | 116
* CCCc1cc(O)c2c(c1)OC(C)(C)[C@@H]1CCC(C(=O)O)=C[C@@H]21 | 4.4
* CCCc1cc(O)c2c(c1)OC(C)(C)[C@@H]1CC=C(CO)C[C@@H]21 (racemic) [11-OH-Δ8-THCV, (±)-11-hydroxy-Δ8-THCV] | 0.8

Input: Field request: Cmax | item: CCCc1cc(O)c2c(c1)OC(C)(C)[C@@H]1CC=C(C)C[C@@H]21 [Δ8-THCV, Δ8-tetrahydrocannabivarin]
Output: 2.1
